- subject.of.test: CHIKV p62-E1 (Chikungunya virus)
- experiment.notes: SPR (Biacore T100), IgG captured by anti-human IgG, p62-E1 injected
parameter: koff (s⁻¹)
One number for each entry, in s⁻¹.

Before answering, review these 5 worked examples.
4J21 (antibody, V domains shown) VH: QVQLVQSGSELKKPGASVKVSCKASGYSFTSYSINWVRQAPGQGPEWMGWIDTNTGNPTYAQDFAGRFVFSLDTSVTTAYLQISSLKAGDTAVYYCATYYVDLWGSYRQDYYGMDVWGHGTLVTVSS VL: QSVVTQPPSVSGTPGQGVTISCSGGSSNIGSNPVNWYQMVPGTAPKLLLYTNNQRPSGVPDRFSGSKSGTSASLAINGLQSEDEADYYCAVWDDSLSGRWVFGGGTKLTVL
6.2e-05
4J14 (antibody, V domains shown) VH: QVQLVQSGAEVKKPGSSVKVSCKASGGTSSTYAISWVRQAPGQGLEWMGGSIPVFATVNYAQKFQGRLTITADESTSTVYMELSSLRSEDTAVYFCASPYCSSMNCYTTFYYFDFWGQGTLVTVSS VL: QAVVTQPASVFGFPGQSITISCTGTSSDFGTYNYVSWYQQHPGQAPKLMIFDVSNRPSGVSNRFSGSKSGNTASLTISGLQAEDEASYYCSSYTSGSTLYGGGTKLTVL
0.00153
3B4 (antibody, V domains shown) VH: QVQLEESGPTLVKPTQTLTLTCSFSGFSLTTTGVTVGWIRQPPGKALEWLALIYWDDDKRYSPSLKSRLTITKDTSKNQVVLTMTNMDPVDTATYYCAHSTGYYDSSGYRGALDAFAVWGQGTLVTVSS VL: QIVVTQFPDSPAVSLGERATINCKSSQSVLYHSNNKNYLAWYQQKPGQPPNLLIYWASARQSGVPDRFSGSGSGTDFTLTISSLQAEDVAVYYCQQYYSTPYTFGQGTKLEIK
0.000156
3A2 (antibody, V domains shown) VH: QVQLVQSGGGVVQPGRSLRLSCAASGFTFSNYVMEWVRQAPGKGLEWVAVISYDGSNKYYADSVKGRFTISRDNSKNTLYLQMNSLRAEDTAVYYCARSEWESSYGSGNYYTDYFYYYAMDVWGPGTLVTVSS VL: QAVVTQSPLSLPVTPGEPASISCRSNQSLLRGIRYNYLDWYLQKPGQSPQLLIYLGSNRASGVPDRFSGSGSATDFTLKISRVEAEDVGVYYCMQALQTPTTFGQGTRLEIK
0.00101
4N12 (antibody, V domains shown) VH: QVQLVQSGAEVKKPGASVKVSCKVSGYILSKLSVHWVRQAPGKGLEWMGGSEREDGETVYAQKFQGRISLTEDTSIETAYMELSSLSSEDTAVYYCATGGFWSMIGGNGVDYWGQGTLVTVSS VL: QAVVTQSPSSLPASVGDRVTITCRASQDIRNNLGWYQQKPGKAPERLIYGTSNLQSGVPSRFSGSGSGTEFTLTISSLQPEDFATYYCLQHNSYPPTFGRGTKVEIK
0.000118

State the recorded koff for every item in the following list.
1. 2C2 (antibody, V domains shown) VH: QVQLVQSGGGLVQPGRSLTLSCAASGFTFDVYAMHWVRQAPGKGLEWVAGISWNSGSVGYADSMKGRFTISRDNAKNSLYLQINSLRAEDTALYYCAKAFWFGELSGYGMDVWGQGTLVTVSS VL: QAVVTQPPSASGFPGQSVTISCTGTSSDVGSYNYVSWYQQHPGKAPKLIIYAVTRRPSGVPERFSGSKSGNTASLTVSGLQAEDEADYYCTSYAGNNKDVFGTGTKVTVL
2. 5O14 (antibody, V domains shown) VH: QVQLVQSGGRVVQAGRSLRLSCAASGFTFSMYGVHWVRQAPGKGLEWVAVIWNDGSKEYYGDSVKGRFTISRDNSRNTLYLQMNSLRVDDTAVYFCARDGIPDPERGDYGGLDYWGQGTLVTVSS VL: QTVVTQFPSSPFASVGDGVTITCRARQSISSYVNWYQQKPGKAPKLLIYATSSLQSGVPSRFSGSGYGTDFTLTISGLQPEDFATYYCQQSYSFPRTFGQGTKVEIK
3. 1L1 (antibody, V domains shown) VH: QVQLVQSGPTLVKPTQTLTLTCTFSGFSLSISGVGVGWIRQPPGKALEWLALIYWDDDKRYSPSLKSRLTITKDTSENQVVLTMTNMDPVDTATYYCAHSMTKGGAIYGQAYFEYWGQGTLV VL: PSPALEPDSDVGGYNYVSWYQQHPGKAPKLIIYDVTDRPSGVSNRFSASKSANTASLTISGLQAEDEADYYCSSYTSSST

-- reply
1: 0.000608; 2: 0.000911; 3: 0.000273

State the recorded koff for every item in the following list.
1. 3E23 (antibody, V domains shown) VH: QVQLVQSGPGLVKPSDTLSLTCSVSSDALRSRSYYWGWVRQPPGKGLEWIGTVSYSGGTYYNPSLQSRVTVSVDTSKNHFSLRLNSVTAADAAVYYCARSYFYDGSGYYYLSYFDSWGQGTLVTVSS VL: QAVVTQEPSLTVSPGGTVTLTCASSTGAVTSGHYPNWFQQKPGQPPRALIYSTDNKHSWTPARFSGSLLGVKAALTLSDVQPEDEADYYCLLHFGGVVVFGGGTKLTVL
2. 8G18 (antibody, V domains shown) VH: QVQLVQSGAQVKKPGSSVKVSCKPSGGTFNNNGISWVRQAPGQGLEWMGGIVPNFGTPTYGQDFQGRVTITADESTSTVFLELTRLRSDDTAVYFCARGRTAVTPMQLGLQFYFDFWGRGTLVTVSS VL: QTVVTQEPSLTVSPGGTVTLTCSANSGAVTSDYYPNWFQQKPGQAPRALIYSASNKFSWTPARFSGSLLGGKAALTLSGAQPEDEAEYYCLVYSGDGVVFGGGTKLTV

-- reply
[0.000267, 0.000188]
